- Test system: C33A
- experiment-description: Primary qHTS to identify gynecologic anti-cancer compounds using libraries of approved drugs and bioactive compounds (AID 1345084); further: nearly all actives have a fitted effect of over 55% in size
- settings: Gynecologic cancer cell panel viability, ATPlite luminescence, 48 h; series mostly up to 57.5 µM
Results filed as inconclusive are left out. Calls of active or inactive are those of the source. The call rests on the fitted dose curve; in most records, active means well fitted cell-killing curve with a large enough effect; inconclusive means small, poorly fitted or top-dose-only effect, or effect the other way; inactive means flat fitted curve, though single readings scatter.
// classify into Y (active), N (inactive)

Check the results log: what was the call for `CC(C)=CCN1CC[C@@]2(C)c3cc(O)ccc3C[C@@H]1[C@@H]2C` ?
N

Check the results log: what was the call for `C[C@]12CC[C@H]3[C@@H](CCC4=CC(=O)CC[C@@]43C)[C@@H]1CC[C@@H]2C(=O)O` ?
N

Check the results log: what was the call for `O=c1n(Cl)c(=O)n(Cl)c(=O)n1Cl` ?
N

Check the results log: what was the call for CC(C(O)c1ccccc1)N(C)C/C=C/c1ccccc1 (configuration not stated) ?
N

Check the results log: what was the call for CC(Cc1ccc2c(c1)OCO2)NO (configuration not stated) ?
N

Check the results log: what was the call for COc1ccc(OC)c(CC(C)N)c1 (configuration not stated) ?
N

Check the results log: what was the call for `CC[n+]1c(-c2ccccc2)c2cc(N)ccc2c2ccc(N)cc21` ?
Y

Check the results log: what was the call for `CC(C)(O)C(Cl)(Cl)Cl` ?
N

Check the results log: what was the call for `C[N+](C)(C)CCOC(=O)C(O)(c1ccccc1)c1ccccc1` ?
N

Check the results log: what was the call for `CC#C[C@]1(O)CC[C@H]2[C@@H]3C[C@H](C)C4=CC(=O)CC[C@]4(C)[C@H]3CC[C@@]21C` ?
N

Check the results log: what was the call for CC(CC(C(N)=O)(c1ccccc1)c1ccccc1)N(C)C (configuration not stated) ?
N

Check the results log: what was the call for `Clc1ccc(CO/N=C(\Cn2ccnc2)c2ccc(Cl)cc2Cl)c(Cl)c1` ?
N
